# Inhibition 3 per entry
Target: cloned human or rodent CNS receptors, channels, and transporters (PDSP panel) (Homo sapiens)
Construct: expressed in transfected cells
Sequence (P35368 1-520): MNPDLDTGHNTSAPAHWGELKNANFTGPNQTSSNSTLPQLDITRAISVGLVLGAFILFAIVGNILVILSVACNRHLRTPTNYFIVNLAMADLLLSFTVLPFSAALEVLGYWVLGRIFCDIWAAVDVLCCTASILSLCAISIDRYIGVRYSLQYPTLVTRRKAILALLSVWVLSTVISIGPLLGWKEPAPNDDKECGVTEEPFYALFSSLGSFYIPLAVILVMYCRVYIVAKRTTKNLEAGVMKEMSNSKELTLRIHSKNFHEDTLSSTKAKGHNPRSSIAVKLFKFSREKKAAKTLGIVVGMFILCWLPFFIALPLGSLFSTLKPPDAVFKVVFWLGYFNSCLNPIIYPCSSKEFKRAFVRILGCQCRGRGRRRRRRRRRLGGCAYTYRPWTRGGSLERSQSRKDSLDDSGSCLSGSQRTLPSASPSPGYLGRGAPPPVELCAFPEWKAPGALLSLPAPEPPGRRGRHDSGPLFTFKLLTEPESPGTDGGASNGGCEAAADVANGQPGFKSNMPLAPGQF
Assay: PDSP GPCR panel primary binding assays at 10 μM
Settings: Alpha1B; primary assay, replicate 3
Procedure: GPCR panel: Screening against the receptors within the PDSP panel offers an assessment of off-target pharmacological activity at cloned human or rodent CNS receptors, channels, and transporters that could confound CNS-related phenotypes. A total of 46–47 primary binding assays were run in quadruplicate on these compounds at 10 μM, with follow-up secondary binding assays in 11-point dose-response in triplicate for select compounds versus select receptors. […]
Write the answer as a number in %, unit excluded.

In the examples that follow, each entry is paired with its recorded Inhibition 3.
compound	reading-unit	Inhibition 3
CNc1nc(C)nc(N[C@H]2CCC[C@@H](C(=O)NCc3ccc(C#N)cc3C(F)(F)F)C2)n1 [UNC10302679A, GSK2256294A]	%	-2.78
CCC(=O)N1CCC(NC(=O)Nc2ccc(OC(F)(F)F)cc2)CC1 [UNC10302681A, TPPU]	%	7.3
CC(=O)N1CCC(NC(=O)NC23CC4CC(CC(C4)C2)C3)CC1 [UNC10302683A, AR9281]	%	1.69

Consider now this further compound.
Item O=C(NC1CC1)C(=O)C(Cc1ccccc1)NC(=O)[C@H]1CCC(=O)N1Cc1ccccc1 (stereo partly shown) [UNC10302676A, ABT-957 (Alicapistat)] : provide Inhibition 3
-14.75

====

tested on: cloned human or rodent CNS receptors, channels, and transporters (PDSP panel); assay: PDSP GPCR panel primary binding assays at 10 μM; conditions: Alpha2A; primary assay, replicate 1
measurement-type: Inhibition 1 (%)
Return type: number; implicit unit %.

compound	Inhibition 1, %
CC(=O)N1CCC(NC(=O)NC23CC4CC(CC(C4)C2)C3)CC1 [UNC10302683A, AR9281]	1.83
CCC(=O)N1CCC(NC(=O)Nc2ccc(OC(F)(F)F)cc2)CC1 [UNC10302681A, TPPU]	-1.74
CNc1nc(C)nc(N[C@H]2CCC[C@@H](C(=O)NCc3ccc(C#N)cc3C(F)(F)F)C2)n1 [UNC10302679A, GSK2256294A]	-3.6

# evaluate next
Identify the reported Inhibition 1 for the following entry. O=C(NC1CC1)C(=O)C(Cc1ccccc1)NC(=O)[C@H]1CCC(=O)N1Cc1ccccc1 (stereo partly shown) [UNC10302676A, ABT-957 (Alicapistat)]
2.51

====

molecular target: cloned human or rodent CNS receptors, channels, and transporters (PDSP panel) (Homo sapiens); construct: expressed in transfected cells; test: PDSP GPCR panel primary binding assays at 10 μM; settings: M2; primary assay, mean inhibition
Entries annotated with measured Mean %
Record the result as number plus unit.

Recorded Mean %, per entry:
compound	reported-result
O=c1oc2ccccc2cc1-c1cn2cc(Cc3ccc(F)cc3)sc2n1 [UNC10302680A, iMDK]	-8.2%
CC(=O)N1CCC(NC(=O)NC23CC4CC(CC(C4)C2)C3)CC1 [UNC10302683A, AR9281]	-10.23%

# return recorded Mean % for entry CCC(=O)N1CCC(NC(=O)Nc2ccc(OC(F)(F)F)cc2)CC1 [UNC10302681A, TPPU]
-13.3%

For the compound O=C(NC1CC1)C(=O)C(Cc1ccccc1)NC(=O)[C@H]1CCC(=O)N1Cc1ccccc1 (some centres unmarked) [UNC10302676A, ABT-957 (Alicapistat)] , give its reported Mean %.
2.92%

Return Mean % (reported value) for this compound: CNc1nc(C)nc(N[C@H]2CCC[C@@H](C(=O)NCc3ccc(C#N)cc3C(F)(F)F)C2)n1 [UNC10302679A, GSK2256294A]
-9.25%

====

Target: cloned human or rodent CNS receptors, channels, and transporters (PDSP panel) (Rattus norvegicus)
Construct: expressed in transfected cells
Sequence (Q5U3Y7 1-176): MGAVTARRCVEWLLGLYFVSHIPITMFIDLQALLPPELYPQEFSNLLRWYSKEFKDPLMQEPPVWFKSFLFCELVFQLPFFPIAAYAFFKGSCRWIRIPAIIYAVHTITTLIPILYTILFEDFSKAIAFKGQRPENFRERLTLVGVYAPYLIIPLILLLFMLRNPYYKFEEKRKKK
Assay: PDSP GPCR panel primary binding assays at 10 μM
Conditions: Sigma 2; primary assay, replicate 1
measurement-type: Inhibition 1 (%)
State just the number; it will be interpreted in %.

Below: 3 compounds and their reported Inhibition 1.
compound	reported-result
CC(=O)N1CCC(NC(=O)NC23CC4CC(CC(C4)C2)C3)CC1 [UNC10302683A, AR9281]	-6.83
O=C(NC1CC1)C(=O)C(Cc1ccccc1)NC(=O)[C@H]1CCC(=O)N1Cc1ccccc1 (stereo partly shown) [UNC10302676A, ABT-957 (Alicapistat)]	16.59
CNc1nc(C)nc(N[C@H]2CCC[C@@H](C(=O)NCc3ccc(C#N)cc3C(F)(F)F)C2)n1 [UNC10302679A, GSK2256294A]	-22.33

Consider the record given below.
Identify the reported Inhibition 1 for the following entry. CCC(=O)N1CCC(NC(=O)Nc2ccc(OC(F)(F)F)cc2)CC1 [UNC10302681A, TPPU]
18.9

====

biological target: cloned human or rodent CNS receptors, channels, and transporters (PDSP panel) (Homo sapiens, UniProt P28223); construct: expressed in transfected cells; test: PDSP GPCR panel primary binding assays at 10 μM; conditions: 5-HT2A; primary assay, replicate 3
Sequence (P28223 whole entry): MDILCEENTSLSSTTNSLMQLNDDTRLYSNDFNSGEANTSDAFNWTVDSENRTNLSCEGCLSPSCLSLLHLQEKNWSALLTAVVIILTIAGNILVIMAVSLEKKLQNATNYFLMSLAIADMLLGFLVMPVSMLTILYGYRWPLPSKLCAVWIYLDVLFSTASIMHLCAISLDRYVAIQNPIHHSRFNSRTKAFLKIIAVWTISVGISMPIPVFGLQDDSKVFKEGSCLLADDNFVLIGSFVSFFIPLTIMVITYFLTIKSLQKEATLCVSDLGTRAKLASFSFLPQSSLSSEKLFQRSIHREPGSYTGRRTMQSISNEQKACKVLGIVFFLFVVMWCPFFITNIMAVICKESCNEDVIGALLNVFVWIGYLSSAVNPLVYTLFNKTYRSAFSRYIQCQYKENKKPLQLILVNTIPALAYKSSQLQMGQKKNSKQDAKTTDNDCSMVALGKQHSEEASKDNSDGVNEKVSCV
Listed below: Inhibition 3 values for each entry.
Kindly provide the numeric value in % only, without the unit symbol.

compound	Inhibition 3 [%]
CNc1nc(C)nc(N[C@H]2CCC[C@@H](C(=O)NCc3ccc(C#N)cc3C(F)(F)F)C2)n1 [UNC10302679A, GSK2256294A]	-13.01
CCC(=O)N1CCC(NC(=O)Nc2ccc(OC(F)(F)F)cc2)CC1 [UNC10302681A, TPPU]	-8.74
CC(=O)N1CCC(NC(=O)NC23CC4CC(CC(C4)C2)C3)CC1 [UNC10302683A, AR9281]	-10.71

From here, focus on the item given below.
Give the reported Inhibition 3 for this compound. O=C(NC1CC1)C(=O)C(Cc1ccccc1)NC(=O)[C@H]1CCC(=O)N1Cc1ccccc1 (stereo partly shown) [UNC10302676A, ABT-957 (Alicapistat)]
5.57

====

Property: Mean %; scope: individual molecules
tested on: cloned human or rodent CNS receptors, channels, and transporters (PDSP panel); assay: PDSP GPCR panel primary binding assays at 10 μM; conditions: Receptor DOR; primary assay, 10 μM; mean of Inhibition 1-4
Respond numerically; units are % and should not be typed.

Below, each entry is followed by its recorded Mean % result.
molecule	reported-result
CCCCNc1ncc2c(-c3ccc(CN4CCN(C)CC4)cc3)cn([C@H]3CC[C@H](O)CC3)c2n1 [UNC2025C, UNC2025]	-5.04
c1cn2cc(-c3ccc4cn[nH]c4c3)nc(Nc3ccc(N4CCOCC4)cc3)c2n1 [UNC10302678A, Entospletinib (GS-9973)]	-8.16
Cl.NC(=O)c1cnc(N[C@@H]2CCCC[C@@H]2N)nc1Nc1cccc(-n2nccn2)c1 [UNC10302682A, P505-15 (PRT06207 HCl)]	-4.18

We now examine a further molecule.
State recorded Mean % with cloned human or rodent CNS receptors, channels, and transporters (PDSP panel), entry O=c1oc2ccccc2cc1-c1cn2cc(Cc3ccc(F)cc3)sc2n1 [UNC10302680A, iMDK] , no comment.
-14.7

====

molecular target: cloned human or rodent CNS receptors, channels, and transporters (PDSP panel) (Homo sapiens, UniProt P21918); construct: expressed in transfected cells; assay: PDSP GPCR panel primary binding assays at 10 μM; details: D5; primary assay, replicate 4
Sequence (P21918 whole entry): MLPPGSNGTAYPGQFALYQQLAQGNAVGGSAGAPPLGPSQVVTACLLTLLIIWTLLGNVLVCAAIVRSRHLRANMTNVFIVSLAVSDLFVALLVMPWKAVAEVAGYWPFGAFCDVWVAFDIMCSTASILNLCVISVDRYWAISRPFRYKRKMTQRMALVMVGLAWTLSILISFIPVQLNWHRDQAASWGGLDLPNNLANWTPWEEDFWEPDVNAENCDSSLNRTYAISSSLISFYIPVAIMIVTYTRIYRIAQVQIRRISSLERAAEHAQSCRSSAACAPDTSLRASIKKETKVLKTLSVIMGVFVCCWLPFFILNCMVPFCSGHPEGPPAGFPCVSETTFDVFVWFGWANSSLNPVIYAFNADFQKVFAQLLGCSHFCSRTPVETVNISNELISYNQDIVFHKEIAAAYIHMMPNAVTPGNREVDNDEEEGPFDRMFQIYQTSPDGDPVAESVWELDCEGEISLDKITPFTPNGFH
Measured Inhibition 4 values are reported for all entries that follow.
Entry format: amount then unit.

Worked cases, answers included:
molecule	reported-result
CCC(=O)N1CCC(NC(=O)Nc2ccc(OC(F)(F)F)cc2)CC1 [UNC10302681A, TPPU]	-18.34%
CNc1nc(C)nc(N[C@H]2CCC[C@@H](C(=O)NCc3ccc(C#N)cc3C(F)(F)F)C2)n1 [UNC10302679A, GSK2256294A]	-11%
CC(=O)N1CCC(NC(=O)NC23CC4CC(CC(C4)C2)C3)CC1 [UNC10302683A, AR9281]	-9.17%

Now consider a different molecule.
Give a short answer stating reported Inhibition 4 for O=C(NC1CC1)C(=O)C(Cc1ccccc1)NC(=O)[C@H]1CCC(=O)N1Cc1ccccc1 (stereo partly shown) [UNC10302676A, ABT-957 (Alicapistat)] .
-10.39%
